target: recombinant homotrimeric HA, A/swine/Ontario/01911-2/99 H4N6 (Influenza A virus A/swine/Ontario/01911-2/99 (H4N6)); test: trimeric HA microarray, transfection set 5; conditions: remark: other sources report otherwise
Endpoint: Trimeric HA Binding RLU (RLU)
Numbers only, in RLU.

The following binders have reported results that may help.
[[record]]
binder = "TCN-537 (3194_D21) (antibody, V domains shown) VH: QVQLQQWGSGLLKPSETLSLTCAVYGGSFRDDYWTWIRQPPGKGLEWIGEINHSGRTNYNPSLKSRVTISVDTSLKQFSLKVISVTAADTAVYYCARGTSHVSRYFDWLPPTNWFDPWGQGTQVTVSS VL: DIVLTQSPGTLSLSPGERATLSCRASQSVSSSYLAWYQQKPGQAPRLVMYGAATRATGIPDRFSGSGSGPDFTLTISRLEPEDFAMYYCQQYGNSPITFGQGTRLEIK"
endpoint = "Trimeric HA Binding RLU"
reported = 3280

[[record]]
binder = "TCN-554 (5277_M05) (antibody, V domains shown) VH: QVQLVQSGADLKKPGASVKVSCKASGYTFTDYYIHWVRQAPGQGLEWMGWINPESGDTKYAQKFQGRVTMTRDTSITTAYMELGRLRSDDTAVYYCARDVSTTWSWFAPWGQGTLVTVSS VL: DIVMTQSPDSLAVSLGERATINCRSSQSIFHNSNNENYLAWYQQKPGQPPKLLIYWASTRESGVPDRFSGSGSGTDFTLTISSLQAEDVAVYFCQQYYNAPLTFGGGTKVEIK"
endpoint = "Trimeric HA Binding RLU"
reported = 5400


Attention now shifts to the item below.
What value of Trimeric HA Binding RLU has been reported for the following binder? TCN-504 (3251_K17) (antibody, V domains shown) VH: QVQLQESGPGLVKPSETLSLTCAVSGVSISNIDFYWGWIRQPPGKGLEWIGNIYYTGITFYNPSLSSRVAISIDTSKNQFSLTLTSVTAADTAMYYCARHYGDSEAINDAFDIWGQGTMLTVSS VL: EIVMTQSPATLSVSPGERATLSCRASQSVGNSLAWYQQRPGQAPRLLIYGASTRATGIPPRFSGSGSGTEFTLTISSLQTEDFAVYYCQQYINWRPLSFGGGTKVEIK
54800
